Data origin: paper PMC8980233

Molecular target: α6/3β2β3 nAChR (Homo sapiens, UniProt P17787+P32297+Q15825)
Sequence (Q15825+P32297 fused with the stated changes, one chain of several): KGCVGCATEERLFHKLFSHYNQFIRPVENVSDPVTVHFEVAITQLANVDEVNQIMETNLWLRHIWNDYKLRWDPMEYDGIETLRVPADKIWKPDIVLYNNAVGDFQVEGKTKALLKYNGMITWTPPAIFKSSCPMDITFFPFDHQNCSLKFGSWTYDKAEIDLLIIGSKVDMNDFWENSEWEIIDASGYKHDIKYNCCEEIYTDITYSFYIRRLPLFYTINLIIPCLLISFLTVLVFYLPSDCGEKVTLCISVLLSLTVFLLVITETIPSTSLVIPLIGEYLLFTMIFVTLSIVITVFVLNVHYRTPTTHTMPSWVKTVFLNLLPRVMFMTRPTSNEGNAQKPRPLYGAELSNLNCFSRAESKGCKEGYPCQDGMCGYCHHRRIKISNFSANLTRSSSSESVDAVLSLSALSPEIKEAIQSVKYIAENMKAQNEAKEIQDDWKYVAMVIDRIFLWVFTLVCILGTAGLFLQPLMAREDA
Sequence (Q05901 25-458 partner limits assumed, one chain of several): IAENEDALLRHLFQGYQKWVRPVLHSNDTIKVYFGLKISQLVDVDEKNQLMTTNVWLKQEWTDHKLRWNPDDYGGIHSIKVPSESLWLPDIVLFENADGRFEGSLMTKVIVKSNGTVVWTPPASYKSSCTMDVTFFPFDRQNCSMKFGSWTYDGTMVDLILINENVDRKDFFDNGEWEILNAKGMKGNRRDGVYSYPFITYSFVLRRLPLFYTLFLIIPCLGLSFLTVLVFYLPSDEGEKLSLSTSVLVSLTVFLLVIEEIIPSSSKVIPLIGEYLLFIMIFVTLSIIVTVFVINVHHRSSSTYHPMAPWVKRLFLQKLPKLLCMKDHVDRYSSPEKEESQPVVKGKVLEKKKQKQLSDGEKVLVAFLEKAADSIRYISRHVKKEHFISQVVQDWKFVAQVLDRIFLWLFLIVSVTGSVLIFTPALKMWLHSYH
Test: nAChR functional assay, automated patch-clamp
Type: cell-based
measureName: EC50 (µM)

[[record]]
molecule = "C1=CCC(c2cccnc2)NC1 (racemic) [Anatabine, (±)-Anatabine]"
valueunits = "µM"
experimentalresult = 3.6


* * *

Molecular target: α4β2 nAChR (Homo sapiens, UniProt P17787+P43681)
Sequence (P43681 29-627 limits assumed): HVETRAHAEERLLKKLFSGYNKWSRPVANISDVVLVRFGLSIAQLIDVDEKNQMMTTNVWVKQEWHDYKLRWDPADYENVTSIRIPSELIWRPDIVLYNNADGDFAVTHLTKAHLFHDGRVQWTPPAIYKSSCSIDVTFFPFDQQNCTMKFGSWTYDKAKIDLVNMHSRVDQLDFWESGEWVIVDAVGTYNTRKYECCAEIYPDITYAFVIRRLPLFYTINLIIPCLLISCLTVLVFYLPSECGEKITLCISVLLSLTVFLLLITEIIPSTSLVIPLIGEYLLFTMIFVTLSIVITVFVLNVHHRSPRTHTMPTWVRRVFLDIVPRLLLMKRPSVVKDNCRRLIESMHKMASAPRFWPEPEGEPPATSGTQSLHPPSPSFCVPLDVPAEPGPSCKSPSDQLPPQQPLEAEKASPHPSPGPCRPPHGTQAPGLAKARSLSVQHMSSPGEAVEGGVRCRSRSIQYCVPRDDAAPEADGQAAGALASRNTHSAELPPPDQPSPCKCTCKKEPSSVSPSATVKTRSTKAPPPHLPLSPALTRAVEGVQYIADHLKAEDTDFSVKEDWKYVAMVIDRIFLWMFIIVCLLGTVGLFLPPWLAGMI
Sequence (P17787 26-502): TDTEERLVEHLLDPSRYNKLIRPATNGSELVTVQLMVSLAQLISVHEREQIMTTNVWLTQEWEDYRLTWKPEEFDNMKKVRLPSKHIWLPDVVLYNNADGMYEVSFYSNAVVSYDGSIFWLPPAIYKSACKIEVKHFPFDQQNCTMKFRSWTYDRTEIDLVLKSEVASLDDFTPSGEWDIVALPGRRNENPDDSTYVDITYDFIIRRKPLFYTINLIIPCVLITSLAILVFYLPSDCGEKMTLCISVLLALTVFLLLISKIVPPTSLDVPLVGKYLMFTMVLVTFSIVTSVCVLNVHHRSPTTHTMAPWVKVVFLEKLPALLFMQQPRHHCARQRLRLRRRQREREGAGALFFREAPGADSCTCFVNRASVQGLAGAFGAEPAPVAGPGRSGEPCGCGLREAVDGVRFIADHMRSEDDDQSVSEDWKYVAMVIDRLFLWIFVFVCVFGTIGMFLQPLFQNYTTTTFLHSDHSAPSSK
Test: nAChR functional assay, automated patch-clamp
Conditions: mean ± S.D.
measureName: EC50

[[record]]
compound = "CN1C(=O)CC[C@H]1c1cccnc1 [Cotinine, (-)-cotinine]"
experimentalresult = "> 100 µM"

